molecular target: UniProt P00735; assay: Inhibitory effect on ester-hydrolyzing activity of bovine thrombin (TAMe substrate); assay type: biochemical; details: read-out: percent inhibition at 10^-3 M (thrombin)
Structures can show the parent of a compound that is named as a salt.
PARAMETER: inhibition at 1000 µM

* CCC(Cc1cccc(NC(=N)N)c1)C(=O)Oc1ccccc1 (centres unmarked) | 16.8%
* CC(Cc1cccc(NC(=N)N)c1)C(=O)Oc1ccccc1.O=C(O)O (centres unmarked) | < 10%
* CCOC(=O)c1ccc(OC(=O)CCc2ccc(NC(=N)N)cc2)cc1.Cl [Compound No. 47, hydrochloride] | 12.3%
* CCCCOc1ccc(OC(=O)CCc2ccc(NC(=N)N)cc2)cc1 | < 10%
* CCCC(Cc1cccc(NC(=N)N)c1)C(=O)Oc1ccccc1 (centres unmarked) | < 10%
* CCOC(=O)c1ccc(OC(=O)C(CC)Cc2ccc(N)cc2)cc1 (centres unmarked) | 25.3%
* CC(Cc1cccc(NC(=N)N)c1)C(=O)Oc1cccc2ccccc12 (centres unmarked) | < 10%
* CCCCOc1ccc(OC(=O)CCc2ccc(N)cc2)cc1 | 19.9%
* CCC(Cc1ccc(NC(=N)N)cc1)C(=O)Oc1ccccc1 (centres unmarked) | < 10%
* CC(Cc1cccc(N)c1)C(=O)Oc1ccc(Cl)cc1 (centres unmarked) | < 10%
* CCC(Cc1cccc(N)c1)C(=O)Oc1ccc(OC)cc1 (centres unmarked) [Compound No. 4, hydrochloride] | < 10%
* CCC(Cc1cccc(N)c1)C(=O)Oc1cccc2ccccc12 (centres unmarked) | < 10%
* CC(Cc1ccc(NC(=N)N)cc1)C(=O)Oc1ccc(Cl)cc1 (centres unmarked) | < 10%
* Cc1ccc(OC(=O)C(C)Cc2ccc(NC(=N)N)cc2)cc1 (centres unmarked) [Compound No. 45, hydrochloride] | < 10%
